Target: Methionine aminopeptidase (Escherichia coli K-12, UniProt P0AE18)
Sequence (P0AE18 whole entry): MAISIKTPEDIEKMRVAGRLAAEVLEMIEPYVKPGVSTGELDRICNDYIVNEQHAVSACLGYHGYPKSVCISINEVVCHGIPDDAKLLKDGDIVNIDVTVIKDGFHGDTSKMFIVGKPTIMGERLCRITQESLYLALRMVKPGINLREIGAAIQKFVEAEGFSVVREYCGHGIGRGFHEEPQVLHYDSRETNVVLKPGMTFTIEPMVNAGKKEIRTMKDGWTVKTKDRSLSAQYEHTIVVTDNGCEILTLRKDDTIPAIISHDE
endpoint_name: pIC50
# reply with the number alone; pIC50 is -log10 of concentration in mol/L

Consider the worked cases shown below.
What value of pIC50 has been recorded for this entry: `COC(C)(C)Cc1scnc1C(=O)Nc1nccs1`
7.16

Would you kindly share the measured pIC50 for `COCCc1scnc1C(=O)Nc1nccs1` ?
6.82

***
Given the entry `CO[C@@H](Cc1scnc1C(=O)Nc1nccs1)c1ccccc1` , report its measured pIC50.
7.18

// query pIC50 value for entry `O=C(Nc1nccs1)c1ncsc1CN1CCOCC1`
7.26

Look up pIC50: `O=C(OCCc1scnc1C(=O)Nc1nccs1)c1ccccc1`
7.39

# lookup: pIC50 of `O=C(Nc1nccs1)c1ncsc1CCOCc1ccccc1`
7.05

Please look up its pIC50: `O=C(Nc1nccs1)c1ncsc1CCO`
6.33

====

Target: UniProtKB Q01662
Sequence (Q01662 whole entry): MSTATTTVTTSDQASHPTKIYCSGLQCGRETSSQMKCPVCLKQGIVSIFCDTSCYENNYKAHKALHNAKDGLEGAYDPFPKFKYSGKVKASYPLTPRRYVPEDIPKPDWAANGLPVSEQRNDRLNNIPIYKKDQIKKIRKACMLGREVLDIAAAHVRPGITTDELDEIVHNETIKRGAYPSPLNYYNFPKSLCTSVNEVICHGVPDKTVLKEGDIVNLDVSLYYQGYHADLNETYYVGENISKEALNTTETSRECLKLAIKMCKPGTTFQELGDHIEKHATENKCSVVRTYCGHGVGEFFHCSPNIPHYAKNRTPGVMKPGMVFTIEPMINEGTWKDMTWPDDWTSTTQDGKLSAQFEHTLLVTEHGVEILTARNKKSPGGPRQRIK
Ranges used to classify IC50: range A = under 300 nM, range B = from 300 nM up to 800 nM, range C = 800 nM and over

Would you please look over these solved cases?
Category lookup for the compound `O=C(Nc1nccs1)c1ncsc1CN1CCCCC1`
range A

Textbook exercise: identify the category of the compound given here, `Cc1ccc(S(=O)(=O)OCCc2scnc2C(=O)Nc2nccs2)cc1` , according to its measured value.
range C

Each compound maps to one class by IC50. Which class for `O=C(OCCc1scnc1C(=O)Nc1nccs1)c1ccccc1` ?
range C

Quick check: band for COC(c1ccccc1)c1scnc1C(=O)Nc1nccs1 (configuration not stated)
range B

---
Category of `O=C(Cc1ccccc1)OCCc1scnc1C(=O)Nc1nccs1` :
range C

Which class does COC(Cc1scnc1C(=O)Nc1nccs1)c1cccc(F)c1 (configuration not stated) fall in?
range B

# classify by IC50 band: CCOC(Cc1scnc1C(=O)Nc1nccs1)C(C)C (configuration not stated)
range A

Please let me know in which category the item COC(Cc1scnc1C(=O)Nc1nccs1)c1ccccc1 (configuration not stated) belongs.
range B

Place this compound in its band: COC(Cc1scnc1C(=O)Nc1nccs1)C1CCCCC1 (configuration not stated)
range B

Lab note: sort COC(Cc1scnc1C(=O)Nc1nccs1)c1ccccc1Cl (configuration not stated) into the matching IC50 band.
range A

Hey, which category is COC(Cc1scnc1C(=O)Nc1nccs1)CC(C)C (configuration not stated) in, do you know?
range B

====

Target: UniProt:Q01662
Sequence (Q01662 whole entry): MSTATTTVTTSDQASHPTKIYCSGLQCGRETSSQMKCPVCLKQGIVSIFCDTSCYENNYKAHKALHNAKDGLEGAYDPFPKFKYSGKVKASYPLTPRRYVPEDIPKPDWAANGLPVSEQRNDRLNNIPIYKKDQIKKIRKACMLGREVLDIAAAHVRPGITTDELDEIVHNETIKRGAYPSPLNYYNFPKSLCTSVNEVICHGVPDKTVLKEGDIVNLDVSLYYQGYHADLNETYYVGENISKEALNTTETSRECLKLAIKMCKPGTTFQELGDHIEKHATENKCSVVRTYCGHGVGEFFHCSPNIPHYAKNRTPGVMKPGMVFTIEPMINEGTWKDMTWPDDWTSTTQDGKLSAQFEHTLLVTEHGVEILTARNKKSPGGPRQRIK
endpoint_name: IC50 (nM)
The reply should be a number in nM, with the unit left off.

Lab request: please report IC50 under test system UniProt:Q01662 for `CO[C@H](Cc1scnc1C(=O)Nc1nccs1)c1ccccc1`
450

Item `O=C(Nc1nccs1)c1ncsc1CCOCc1ccccc1` with UniProt:Q01662 - IC50?
4250

====

Biological target: Methionine aminopeptidase (Escherichia coli K-12, UniProt P0AE18)
Sequence (P0AE18 whole entry): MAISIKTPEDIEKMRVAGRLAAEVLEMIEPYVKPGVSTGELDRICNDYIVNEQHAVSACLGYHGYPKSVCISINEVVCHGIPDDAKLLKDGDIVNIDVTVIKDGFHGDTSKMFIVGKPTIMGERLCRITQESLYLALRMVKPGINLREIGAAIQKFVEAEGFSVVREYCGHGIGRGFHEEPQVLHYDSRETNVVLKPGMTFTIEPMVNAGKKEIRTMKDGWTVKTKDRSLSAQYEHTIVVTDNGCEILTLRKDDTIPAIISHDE
Measured pIC50 accompanies every entry in the list below.
As a rule, pIC50 stands for the negative log10 of the concentration, concentration in M.

In the examples that follow, each entry is paired with its recorded pIC50.
Item under review: `O=C(Cc1ccccc1)OCCc1scnc1C(=O)Nc1nccs1` . Reported pIC50?
7.48

Consider the molecule shown here: COC(Cc1scnc1C(=O)Nc1nccs1)c1ccccc1 (stereo not drawn) What is its recorded pIC50?
7.37

Value lookup for pIC50; key = CCCCC(Cc1scnc1C(=O)Nc1nccs1)OC (stereo not drawn)
7.00

Which pIC50 is reported for this molecule? COC(Cc1scnc1C(=O)Nc1nccs1)c1ccc(Cl)cc1 (stereo not drawn)
7.48

Alright, here's another molecule for you.
Endpoint output: pIC50 of `O=C(Nc1nccs1)c1ncsc1CCOC(=O)C1CCCC1` . Value?
6.85

====

# pIC50 per entry for Methionine aminopeptidase 1 (Saccharomyces cerevisiae S288c)
// returns pIC50 (minus log10 of molar concentration), number only

Guide cases for pIC50, answers given:
Request - read-out pIC50 | tested on Methionine aminopeptidase 1 (Saccharomyces cerevisiae S288c) | compound COc1ccccc1C(Cc1scnc1C(=O)Nc1nccs1)OC (stereo not drawn)
6.24

Methionine aminopeptidase 1 (Saccharomyces cerevisiae S288c) / pIC50 / COC(Cc1scnc1C(=O)Nc1nccs1)c1ccc(Cl)cc1 (stereo not drawn) : value?
6.24

Attention now shifts to the item below.
Request: pIC50, test system Methionine aminopeptidase 1 (Saccharomyces cerevisiae S288c), entry `CC(=O)OCCc1scnc1C(=O)Nc1nccs1`
4.75

====

Target sequence: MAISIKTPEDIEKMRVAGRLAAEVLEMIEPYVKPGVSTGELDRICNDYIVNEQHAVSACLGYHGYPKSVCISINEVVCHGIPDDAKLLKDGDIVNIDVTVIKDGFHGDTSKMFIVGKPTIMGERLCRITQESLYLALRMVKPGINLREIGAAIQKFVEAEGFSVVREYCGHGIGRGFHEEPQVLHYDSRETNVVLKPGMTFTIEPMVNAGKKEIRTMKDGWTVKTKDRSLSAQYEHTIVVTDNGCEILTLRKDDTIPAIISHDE
endpoint_name: pIC50
Just so you know, pIC50 here is -log10 of the concentration in molar units; reply with that number alone.

Recorded pIC50 of `Cc1ccc(S(=O)(=O)OCCc2scnc2C(=O)Nc2nccs2)cc1` , please.
5.82

Look up pIC50 for this compound: COc1ccccc1C(Cc1scnc1C(=O)Nc1nccs1)OC (stereo not drawn)
7.46

As a next step, examine the compound that follows.
Would you kindly share the measured pIC50 for COC(Cc1scnc1C(=O)Nc1nccs1)C1CCCCC1 (stereo not drawn) ?
7.27

Ref: ChEMBL document CHEMBL1142821
